System under test: MRGPRX4 (Homo sapiens)
Sequence (Q96LA9 whole entry): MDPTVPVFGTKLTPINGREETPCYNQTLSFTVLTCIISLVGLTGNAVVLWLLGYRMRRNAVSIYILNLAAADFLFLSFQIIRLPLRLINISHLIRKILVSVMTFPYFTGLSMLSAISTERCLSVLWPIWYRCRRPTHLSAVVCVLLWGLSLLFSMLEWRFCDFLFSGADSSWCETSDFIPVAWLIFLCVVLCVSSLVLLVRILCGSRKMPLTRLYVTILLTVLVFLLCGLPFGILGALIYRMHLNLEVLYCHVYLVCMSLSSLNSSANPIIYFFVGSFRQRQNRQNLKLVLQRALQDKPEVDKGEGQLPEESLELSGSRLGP
Assay method text: MRGPR X4 antagonist activity, IP-One Gq HTRF assay in stably transfected HEK cells (versus agonist bilirubin, deoxycholic acid, conjugated bilirubin, urobilin, obeticholic acid or BAR502)
Type: cell-based
Design: expressed in transfected cells; host or cells: HEK cells, stably transfected
Condition notes: versus 10 μM Bilirubin agonist; HEK cells expressing human MRGPR X4; read-out: MRGPR4 Antagonist Activity
Measured metric: IC50

[[record]]
molecule = "N#Cc1ccc(OCc2cccc(C(=O)O)c2)cc1Cl [Compound 1-90]"
system_under_test = "MRGPRX4 (Homo sapiens)"
val = "100 to 500 nM"

[[record]]
molecule = "O=C(O)c1cccc(COc2ccc(Cl)cc2Cl)n1 [Compound 1-115]"
system_under_test = "MRGPRX4 (Homo sapiens)"
val = "< 100 nM"

[[record]]
molecule = "FC(F)c1cccc(COc2ccc(C(F)(F)F)cc2Cl)c1 [Compound 50-1]"
system_under_test = "MRGPRX4 (Homo sapiens)"
val = "1000 to 2500 nM"

[[record]]
molecule = "COc1cc(OCc2cccc(C(=O)O)c2)ccc1C(F)(F)F [Compound 1-67]"
system_under_test = "MRGPRX4 (Homo sapiens)"
val = "500 to 1000 nM"

[[record]]
molecule = "O=C(O)c1cccc(COc2ccc(C(F)(F)F)c(F)c2)c1 [Compound 1-112]"
system_under_test = "MRGPRX4 (Homo sapiens)"
val = "< 100 nM"

[[record]]
molecule = "OCc1cccc(COc2ccc(Cl)cc2Cl)c1 [Compound 14-1]"
system_under_test = "MRGPRX4 (Homo sapiens)"
val = "1000 to 2500 nM"

[[record]]
molecule = "COc1ccc(OCc2cccc(C(=O)O)c2)c2ccccc12 [Compound 1-147]"
system_under_test = "MRGPRX4 (Homo sapiens)"
val = "1000 to 2500 nM"

[[record]]
molecule = "COC(=O)c1cc(COc2ccc(Cl)cc2Cl)on1 [Compound 1-15]"
system_under_test = "MRGPRX4 (Homo sapiens)"
val = "1000 to 2500 nM"

[[record]]
molecule = "Fc1c(COc2ccc(C(F)(F)F)cc2Cl)cccc1-c1nnn[nH]1 [Compound 17-15]"
system_under_test = "MRGPRX4 (Homo sapiens)"
val = "< 100 nM"

[[record]]
molecule = "Cc1cc(COc2ccc(Cl)cc2Cl)cc(C(=O)O)c1 [Compound 4-7]"
system_under_test = "MRGPRX4 (Homo sapiens)"
val = "< 100 nM"


---

System under test: UniProt:Q96LA9
Assay method text: MRGPR X4 antagonist activity, IP-One Gq HTRF assay in stably transfected HEK cells (versus agonist bilirubin, deoxycholic acid, conjugated bilirubin, urobilin, obeticholic acid or BAR502)
Format: cell-based
Design: expressed in transfected cells; host or cells: HEK cells, stably transfected
Condition notes: versus 20 μM deoxycholic acid; read-out: IC50 (Deoxycholic Acid agonist)
Description: HEK cells stably transfected to express human MRGPR X4 were maintained in an incubator at 37° C. with 5% CO2 and grown in DMEM media with 10% fetal bovine serum (FBS) and 1% each of sodium pyruvate, Glutamax, penicillin/streptomycin, and Geneticin. […] Cells were plated in a 384-well assay plate at 20,000 cells per well in 12 μL of Opti-MEM and kept in an incubator overnight. […] The plate was read on a Molecular Devices SpectraMax iD5 plate reader. […]
Known IC50 of a selection of molecules
Measured metric: IC50 (nM)

[[record]]
compound_structure = "O=C(O)c1cccc(COc2ccc(Cl)cc2Cl)c1"
val = 130

[[record]]
compound_structure = "O=C(O)c1cccc(COc2ccc(Cl)cc2Cl)c1F"
val = 55

[[record]]
compound_structure = "Cc1cc(COc2ccc(C(F)(F)F)cc2C)cc(C(=O)O)c1"
val = 63

[[record]]
compound_structure = "O=C(O)c1cccc(COc2ccc(Cl)cc2Cl)n1"
val = 230

[[record]]
compound_structure = "N#Cc1cc(COc2ccc(Cl)cc2Cl)cc(C(=O)O)c1"
val = 23

[[record]]
compound_structure = "Clc1ccc(OCc2cccc(-c3nnn[nH]3)c2)c(Cl)c1Cl"
val = 6

[[record]]
compound_structure = "O=C(O)c1cccc(COc2ccc(C(F)(F)F)cc2Cl)c1"
val = 46


---

System under test: MRGPRX4 (Homo sapiens)
Assay method text: MRGPR X4 antagonist activity, IP-One Gq HTRF assay in stably transfected HEK cells (versus agonist bilirubin, deoxycholic acid, conjugated bilirubin, urobilin, obeticholic acid or BAR502)
Type: cell-based
Parameters: expressed in transfected cells; host or cells: HEK cells, stably transfected
Condition notes: versus 100 μM conjugated bilirubin; read-out: IC50 (Conjugated Bilirubin Agonist)
Measured metric: IC50 (nM)

[[record]]
compound_structure = "O=C(O)c1cccc(COc2ccc(Cl)c(Cl)c2Cl)c1"
val = 24

[[record]]
compound_structure = "CCc1cc(COc2ccc(C(F)(F)F)cc2Cl)nc(C(=O)O)c1"
val = 28

[[record]]
compound_structure = "O=C(O)c1cccc(COc2ccc(Cl)cc2Cl)c1F"
val = 81

[[record]]
compound_structure = "O=C(O)c1cccc(COc2ccc(Cl)cc2Cl)n1"
val = 180

[[record]]
compound_structure = "Clc1ccc(OCc2cccc(-c3nnn[nH]3)c2)c(Cl)c1Cl"
val = 7


---

System under test: MRGPRX4 (Homo sapiens)
Assay method text: MRGPR X4 antagonist activity, IP-One Gq HTRF assay in stably transfected HEK cells (versus agonist bilirubin, deoxycholic acid, conjugated bilirubin, urobilin, obeticholic acid or BAR502)
Format: cell-based
Set-up: expressed in transfected cells; host or cells: HEK cells, stably transfected
Condition notes: versus 10 μM Bilirubin agonist; read-out: IC50 (Bilirubin agonist)
Mark each entry met if its IC50 sits below 10 nM, and not met for all others.

[[record]]
molecule = "N#Cc1cc(COc2ccc(C(F)(F)F)cc2Cl)cc(C(=O)O)c1 [Compound 32-1]"
system_under_test = "MRGPRX4 (Homo sapiens)"
group_label = "met"

[[record]]
molecule = "Clc1ccc(OCc2cccc(-c3nnn[nH]3)c2)c(Cl)c1Cl [Compound 17-4]"
system_under_test = "MRGPRX4 (Homo sapiens)"
group_label = "met"

[[record]]
molecule = "O=C(O)c1cc(F)cc(COc2ccc(C(F)(F)F)cc2Cl)c1 [Compound 1-65]"
system_under_test = "MRGPRX4 (Homo sapiens)"
group_label = "met"

[[record]]
molecule = "O=C(O)c1cccc(COc2ccc(Cl)c(Cl)c2Cl)c1 [Compound 1-78]"
system_under_test = "MRGPRX4 (Homo sapiens)"
group_label = "met"

[[record]]
molecule = "CCc1cc(COc2ccc(C(F)(F)F)cc2Cl)nc(C(=O)O)c1 [Compound 42-3]"
system_under_test = "MRGPRX4 (Homo sapiens)"
group_label = "not met"

[[record]]
molecule = "O=C(O)c1cccc(COc2ccc(C(F)(F)F)cc2Cl)n1 [Compound 1-56]"
system_under_test = "MRGPRX4 (Homo sapiens)"
group_label = "not met"

[[record]]
molecule = "Cc1cc(COc2ccc(C(F)(F)F)cc2Cl)cc(C(=O)O)c1 [Compound 4-10]"
system_under_test = "MRGPRX4 (Homo sapiens)"
group_label = "not met"

[[record]]
molecule = "O=C(O)c1cccc(COc2ccc(Cl)cc2Cl)c1F [Compound 4-1]"
system_under_test = "MRGPRX4 (Homo sapiens)"
group_label = "not met"

[[record]]
molecule = "O=C(O)c1cccc(COc2ccc(C(F)(F)F)cc2Cl)c1 [Compound 1-29]"
system_under_test = "MRGPRX4 (Homo sapiens)"
group_label = "not met"


---

System under test: MRGPRX4 (Homo sapiens)
Assay method text: MRGPR X4 antagonist activity, IP-One Gq HTRF assay in stably transfected HEK cells (versus agonist bilirubin, deoxycholic acid, conjugated bilirubin, urobilin, obeticholic acid or BAR502)
Format: cell-based
Design: expressed in transfected cells; host or cells: HEK cells, stably transfected
Condition notes: versus 10 μM Bilirubin agonist; HEK cells expressing human MRGPR X4; read-out: MRGPR4 Antagonist Activity
Measured metric: IC50

[[record]]
compound_structure = "O=C(c1cccc(COc2ccc(C(F)(F)F)cc2Cl)c1)N1CC(O)C1"
measured_metric = "IC50"
val = "500 to 1000 nM"

[[record]]
compound_structure = "COc1ccc(OCc2cccc(C(=O)O)c2)c(Cl)c1"
measured_metric = "IC50"
val = "1000 to 2500 nM"

[[record]]
compound_structure = "COCCCNC(=O)c1cccc(COc2ccc(C(F)(F)F)cc2Cl)c1"
measured_metric = "IC50"
val = "< 100 nM"

[[record]]
compound_structure = "O=C(O)c1cccc(COc2ccc(Cl)cc2Cl)c1F"
measured_metric = "IC50"
val = "< 100 nM"

[[record]]
compound_structure = "O=C(O)c1cccc(COc2ccc3c(c2)OC(F)(F)O3)c1"
measured_metric = "IC50"
val = "500 to 1000 nM"


---

System under test: MRGPRX4 (Homo sapiens)
Assay method text: MRGPR X4 antagonist activity, IP-One Gq HTRF assay in stably transfected HEK cells (versus agonist bilirubin, deoxycholic acid, conjugated bilirubin, urobilin, obeticholic acid or BAR502)
Assay type: cell-based
Design: expressed in transfected cells; host or cells: HEK cells, stably transfected
Condition notes: versus 20 μM deoxycholic acid; read-out: IC50 (Deoxycholic Acid agonist)
Known IC50 of a selection of compounds
Measured metric: IC50 (nM)

[[record]]
compound = "O=C(O)c1cccc(COc2ccc(Cl)c(Cl)c2Cl)c1 [Compound 1-78]"
system_under_test = "MRGPRX4 (Homo sapiens)"
val = 24

[[record]]
compound = "O=C(O)c1cccc(COc2ccc(C(F)(F)F)cc2Cl)n1 [Compound 1-56]"
system_under_test = "MRGPRX4 (Homo sapiens)"
val = 30

[[record]]
compound = "CCc1cc(COc2ccc(C(F)(F)F)cc2Cl)nc(C(=O)O)c1 [Compound 42-3]"
system_under_test = "MRGPRX4 (Homo sapiens)"
val = 16

[[record]]
compound = "Cc1cc(COc2ccc(C(F)(F)F)cc2Cl)cc(C(=O)O)c1 [Compound 4-10]"
system_under_test = "MRGPRX4 (Homo sapiens)"
val = 22

[[record]]
compound = "O=C(O)c1cccc(COc2ccc(C(F)(F)F)cc2Cl)c1F [Compound 1-55]"
system_under_test = "MRGPRX4 (Homo sapiens)"
val = 22

[[record]]
compound = "N#Cc1cc(COc2ccc(C(F)(F)F)cc2Cl)cc(C(=O)O)c1 [Compound 32-1]"
system_under_test = "MRGPRX4 (Homo sapiens)"
val = 10

[[record]]
compound = "O=C(O)c1cc(F)cc(COc2ccc(C(F)(F)F)cc2Cl)c1 [Compound 1-65]"
system_under_test = "MRGPRX4 (Homo sapiens)"
val = 28

[[record]]
compound = "O=C(O)c1cc(COc2ccc(C(F)(F)F)cc2Cl)ccc1F [Compound 1-85]"
system_under_test = "MRGPRX4 (Homo sapiens)"
val = 30

[[record]]
compound = "O=C(O)c1cccc(COc2ccc(Cl)cc2C(F)(F)F)n1 [Compound 1-31]"
system_under_test = "MRGPRX4 (Homo sapiens)"
val = 5

